# reported pIC50; entries follow
targetOfAssay: Platelet-derived growth factor receptor beta (Homo sapiens)
Sequence (P09619 whole entry): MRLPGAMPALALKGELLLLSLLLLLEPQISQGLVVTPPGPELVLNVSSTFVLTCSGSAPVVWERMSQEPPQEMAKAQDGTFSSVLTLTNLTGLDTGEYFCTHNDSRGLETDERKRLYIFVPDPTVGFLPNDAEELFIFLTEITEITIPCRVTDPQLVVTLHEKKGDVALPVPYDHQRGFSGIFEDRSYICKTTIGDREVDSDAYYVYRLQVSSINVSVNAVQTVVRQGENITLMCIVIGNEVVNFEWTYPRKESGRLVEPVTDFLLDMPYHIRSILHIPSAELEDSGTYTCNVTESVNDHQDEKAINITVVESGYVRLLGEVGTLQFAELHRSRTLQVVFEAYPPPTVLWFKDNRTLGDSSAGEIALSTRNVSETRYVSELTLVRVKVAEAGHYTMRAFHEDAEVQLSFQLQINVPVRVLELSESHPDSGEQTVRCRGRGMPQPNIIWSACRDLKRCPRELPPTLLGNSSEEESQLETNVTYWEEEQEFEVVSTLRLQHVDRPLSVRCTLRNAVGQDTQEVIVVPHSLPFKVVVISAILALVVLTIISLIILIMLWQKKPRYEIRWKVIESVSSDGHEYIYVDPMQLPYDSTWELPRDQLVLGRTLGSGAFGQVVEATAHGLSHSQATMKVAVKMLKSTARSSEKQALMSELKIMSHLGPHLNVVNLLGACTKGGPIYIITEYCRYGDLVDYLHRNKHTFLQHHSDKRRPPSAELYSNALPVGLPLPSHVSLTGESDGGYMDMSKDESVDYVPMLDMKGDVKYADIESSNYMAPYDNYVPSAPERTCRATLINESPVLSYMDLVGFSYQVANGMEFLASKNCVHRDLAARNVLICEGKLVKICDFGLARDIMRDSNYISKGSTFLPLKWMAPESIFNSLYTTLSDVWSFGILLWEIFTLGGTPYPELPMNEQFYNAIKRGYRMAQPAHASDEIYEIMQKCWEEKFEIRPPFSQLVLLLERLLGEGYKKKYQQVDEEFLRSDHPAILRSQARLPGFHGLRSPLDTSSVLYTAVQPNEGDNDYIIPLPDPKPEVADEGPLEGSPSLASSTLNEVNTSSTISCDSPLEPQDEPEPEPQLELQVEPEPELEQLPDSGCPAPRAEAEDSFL
assaySummary: Inhibition of PDGFR-beta in human U251 cells compound pretreated for 60 min before PDGF-BB stimulation for 10 mins by phosphotyrosine ELISA cytoblot method
Just the number, please; pIC50 means minus log10 of the concentration in mol/L.

- compoundString: "COc1ccc(N(C)c2nc(C)nc3oc(C)cc23)c(OC)c1"
  pIC50: 7.39

Dear colleague, I am looking for the recorded pIC50 of the following compound: CCOc1ccc(N(C)c2nc(C)nc3oc(C)cc23)cc1
6.88

---

assaySummary: Antiproliferative activity against human SKOV3 cells overexpressing wild type beta3 tubulin after 48 hrs by sulforhodamine B assay
Format: functional, cell-based
measurementParameters: SK-OV-3, 48 h
# reported pIC50; entries follow
Just the number, please; pIC50 means minus log10 of the concentration in mol/L.

Reference set, count: 3
- compoundString: "COc1ccc2c(c1)CCCN2c1nc(C)nc2oc(C)cc12"
  pIC50: 7.89
- compoundString: "CC(=O)O[C@H]1C(=O)[C@@]2(C)[C@H]([C@H](OC(=O)c3ccccc3)[C@]3(O)C[C@H](OC(=O)[C@H](O)[C@@H](NC(=O)c4ccccc4)c4ccccc4)C(C)=C1C3(C)C)[C@]1(OC(C)=O)CO[C@@H]1C[C@@H]2O"
  pIC50: 8.20
- compoundString: "Cc1nc(N(C)c2ccc3occc3c2)c2cc(C)oc2n1"
  pIC50: 6.37

Dear colleague, I am looking for the recorded pIC50 of the following compound: Cc1nc(N(C)c2ccc3c(c2)CCO3)c2cc(C)oc2n1
6.92

Next: COc1ccc(/C=C\c2cc(OC)c(OC)c(OC)c2)cc1O
8.16
